experiment: Antiproliferative activity against mouse NIH/3T3 cells assessed as growth inhibition after 48 hrs by sulforhodamine B assay; assay type: cell-based; settings: NIH3T3, 48 h
pIC50: −log10 of the molar value.
EXPERIMENTAL_READOUT: pIC50

INSERT INTO results (compound, limit_qualifier, val) VALUES
  ('CC(=O)O[C@H]1C(=O)[C@@]2(C)[C@H]([C@H](OC(=O)c3ccccc3)[C@]3(O)C[C@H](OC(=O)[C@H](O)[C@@H](NC(=O)OC(C)(C)C)c4ccccc4)C(C)=C1C3(C)C)[C@]1(OC(C)=O)CO[C@@H]1C[C@@H]2O', '>', 8.70),
  ('C=C1[C@@H](OC(=O)C[C@H](c2ccccc2)N(C)C)C[C@H](OC(C)=O)[C@]2(C)[C@@H]1C[C@@H]1C[C@H](OC(C)=O)C(C)=C([C@@H](OC(C)=O)[C@@H]2OC(C)=O)C1(C)C', '=', 5.00),
  ('C/C=C(\C)C(=O)N[C@@H](c1ccccc1)[C@@H](O)C(=O)O[C@H]1C[C@@]2(O)[C@@H](OC(=O)c3ccccc3)[C@@H]3[C@]4(OC(C)=O)CO[C@@H]4C[C@H](O)[C@@]3(C)C(=O)[C@H](OC(C)=O)C(=C1C)C2(C)C [CEPHALOMANNINE]', '=', 6.22),
  ('C=C1[C@@H](O)C[C@H](OC(C)=O)[C@@]2(COC(=O)c3ccccc3)[C@@H](OC(C)=O)[C@H](OC(C)=O)[C@@]3(O)[C@]4(C)OC[C@]3(C)C(CC4=O)[C@@H](OC(C)=O)[C@H]12 [TAXININE M]', '<', 4.60);
